Test system: RXF 393 renal
procedureDetails: NCI tumour cell line growth inhibition, 48 h
valueKind: TGI (µM)

[[record]]
molecule = "Cc1ccc(F)cc1NC(=O)c1cc(Cl)ccc1Nc1ccccc1"
comparator = ">"
val = 100

[[record]]
molecule = "O=C(Nc1cccc(-n2ccc3c(NC(=O)c4ccccc4)nccc32)c1)c1cc(N2CCOCC2)cc(C(F)(F)F)c1"
comparator = "="
val = 0.159

[[record]]
molecule = "CCCCCCOc1ccc(NC2=C(Cl)C(=O)c3ncccc3C2=O)cc1"
comparator = "="
val = 3.7

[[record]]
molecule = "CC1(C)N[P+]2(Nc3ccccc3O2)OC1=O (stereo unspecified)"
comparator = ">"
val = 100

[[record]]
molecule = "N#Cc1nc(/C=C/c2ccccc2)oc1N"
comparator = ">"
val = 100

[[record]]
molecule = "COc1cc(/C=C2\\C(=O)Nc3ccccc32)cc(OC)c1OC"
comparator = "="
val = 10.6

[[record]]
molecule = "Cc1n(CC(=O)c2ccccc2)nc2sc(N)n[n+]12"
comparator = ">"
val = 100

[[record]]
molecule = "CN1CCC(n2[nH]c(-c3ccccc3)c(Cc3ccccc3)c2=O)CC1"
comparator = ">"
val = 100

[[record]]
molecule = "COc1cc2c(cc1OCCCN1CCN(c3cc(=O)oc4c(C)c(OC)ccc34)CC1)N=C[C@@H]1CCCN1C2=O"
comparator = "="
val = 1.02

[[record]]
molecule = "COC(=O)c1ccccc1CC(Cc1ccccc1)C(=O)OC (stereo unspecified)"
comparator = "="
val = 70.9

[[record]]
molecule = "COC1/C=C/C(C)C(C(C)C(OC)C(C)CCC(=O)C(C)C(C/C=C/N(C)C=O)OC)OC(=O)/C=C/C=C(\\C)CC(OC)C(OC)C2=CC(=O)O[C@@H](C(C)C(OC)CC(OC)/C=C/C(C)C(O)C1)[C@H]2O (stereo partly specified)"
comparator = "="
val = 0.263

[[record]]
molecule = "COc1ccc2c(c1)[C@@]1(C)CCC3c4ccc(O)cc4CCC3C1C2 (stereo partly specified)"
comparator = "="
val = 34.5

[[record]]
molecule = "C=C(C)[C@@H]1CC[C@]2(C(=O)NCCNCCNCCN)CC[C@]3(C)[C@H](CC[C@@H]4[C@@]5(C)CCC(=O)C(C)(C)[C@@H]5CC[C@]43C)[C@@H]12"
comparator = "="
val = 12.5

[[record]]
molecule = "NC1=NC(c2ccc(F)cc2)C2=C(N1)c1ccc3ccccc3c1OCC2 (stereo unspecified)"
comparator = ">"
val = 100

[[record]]
molecule = "CCOC(=O)/C(=C\\c1ccc(F)cc1)C(C)=O"
comparator = "="
val = 34.8

[[record]]
molecule = "C/C(N=Nc1nc2ccccc2o1)=C1/C=CC=CN1O"
comparator = ">"
val = 100

[[record]]
molecule = "C=CCN(CC=C)CC(C(C)=O)C(c1ccccc1)c1c(O)c2ccccc2oc1=O (stereo unspecified)"
comparator = ">"
val = 100

[[record]]
molecule = "CO/C(=N\\N=C\\c1cccc(C(F)(F)F)c1)c1ccncc1"
comparator = "="
val = 33.2

[[record]]
molecule = "Nc1ccc(-n2c(=O)oc3ccc(Cl)cc3c2=O)c(Cl)c1"
comparator = "="
val = 0.293

[[record]]
molecule = "O=C(OCc1ccccc1)N1c2cc([N+](=O)[O-])ccc2C(=O)N2CCC[C@H]2C1O (stereo partly specified)"
comparator = ">"
val = 100

[[record]]
molecule = "COc1ccc2[nH]cc(-c3nc(-c4c[nH]c5ccncc45)cs3)c2c1"
comparator = "="
val = 3.33

[[record]]
molecule = "CNC(=O)OCc1[nH]ccc2c(C)c3nc4ccc(OC)cc4c3cc12"
comparator = "="
val = 8.72

[[record]]
molecule = "O=CN1CCN(C=S)CC1"
comparator = ">"
val = 100

[[record]]
molecule = "CCCCCCCCC/C=C1\\CC(CO)(COC(=O)c2ccccc2)OC1=O (stereo unspecified)"
comparator = "="
val = 47.4

[[record]]
molecule = "Cc1ccccc1C(C(=O)NC1CCCCC1)N(C(=O)Cn1ccnc1C)c1cccc(F)c1 (stereo unspecified)"
comparator = "="
val = 40.5

[[record]]
molecule = "CCC[CH2][Sn]1([CH2]CCC)[O]C(=O)CN=Cc2ccccc2[O]1"
comparator = "="
val = 0.306

[[record]]
molecule = "COc1ccc(/C=C2\\CN(C)Cc3c2[nH]c(=O)c(C#N)c3-c2ccc(OC)cc2)cc1"
comparator = "="
val = 63.3

[[record]]
molecule = "CS(=O)(=O)O.[Ag]"
comparator = "="
val = 42

[[record]]
molecule = "COc1cc(/C=C/C(=O)OC[C@H](Br)[C@H](OC(C)=O)c2ccc3c(c2)OCO3)cc(OC)c1OC"
comparator = ">"
val = 100

[[record]]
molecule = "O=[N+]([O-])/C=C/c1ccc([N+](=O)[O-])cc1"
comparator = "="
val = 2.98

[[record]]
molecule = "COc1ccc(-n2c3c(c4c(CN(C)C)c(O)c(C)cc42)CCc2ccccc2C3=O)cc1"
comparator = "="
val = 75.6

[[record]]
molecule = "CC[C@@H]1CC[C@@H]2[C@H](CC[C@]3(C)[C@@H](OS(=O)(=O)c4ccc(C)cc4)CC[C@@H]23)[C@H]1CO"
comparator = ">"
val = 100

[[record]]
molecule = "COc1cc2c3c(n(C)c(=O)c2cc1OC)-c1cc2c(cc1/C3=C/[C@H](N)CCCCN)OCO2"
comparator = "="
val = 12.7

[[record]]
molecule = "CNCCOC(=O)/C=C1/CCC2C(C(O)CC3C(C)(C(=O)OC)CCCC23C)C1C (stereo unspecified)"
comparator = "="
val = 0.0521

[[record]]
molecule = "CC1CCC2(CC1)N=C1CCC(C)CC1C1(CCC(C)CC1)N2 (stereo unspecified)"
comparator = ">"
val = 100

[[record]]
molecule = "CCOC(=O)N(C)C1(c2ccccc2)CCN(CCCC(=O)c2ccc(F)cc2)CC1"
comparator = ">"
val = 100

[[record]]
molecule = "Cc1cccc2c1C/C(=C\\c1cccc(C)c1C(=O)O)C2=O"
comparator = ">"
val = 100

[[record]]
molecule = "O=C1O[C@]2(c3ccccc3)C(c3ccccc3)=C[C@]2(C(=O)c2ccccc2)C1=O"
comparator = "="
val = 5.13

[[record]]
molecule = "CCC(=O)c1ccc2c(c1)N(CCCN1CCN(CCO)CC1)c1ccccc1S2"
comparator = "="
val = 26.2

[[record]]
molecule = "CC1=CC2CC(C)C1(C)CCc1ccoc12 (stereo unspecified)"
comparator = ">"
val = 100

[[record]]
molecule = "CCOC(=O)C(=Cn1c(=S)[nH]c2ccc([N+](=O)[O-])cc21)C(=O)OCC"
comparator = ">"
val = 100

